- Test system: Wolbachia pipientis
- measurementNotes: Anti-Wolbachia Cell-Based Screen
- Assay type: functional
- Design: scale not given: in the data most compounds retested in dose-response had high values
- conditionNotes: 5 µM
The campaign covered roughly 48,000 compounds. About 13,000 (27%) showed an effect of 50% or more. Some of the results follow.
Measured Percent Effect accompanies every entry in the list below.
// unit must come after the numeric part

{"compound": "O=S(=O)(c1cccnc1)N1C[C@@H]2COC[C@]2(COCC2CC2)C1", "Percent Effect": "5.387%"}
{"compound": "CCC[C@H]1CN(S(=O)(=O)c2cc(C)ccc2F)C[C@@H]1N", "Percent Effect": "-6.271%"}
{"compound": "CCC(=O)N1CC[C@@H]2[C@H](CC1)N(Cc1cccc(C)n1)CCS2(=O)=O.O=C(O)C(F)(F)F", "Percent Effect": "-0.9694%"}
{"compound": "CCCC(=O)N1CC[C@@H]2[C@H](CC1)N(Cc1cccnc1)CCS2(=O)=O.O=C(O)C(F)(F)F.O=C(O)C(F)(F)F", "Percent Effect": "-5.055%"}
{"compound": "Cc1ccc(F)c(S(=O)(=O)N2CCCC2c2ccncc2)c1 (stereo not given)", "Percent Effect": "113.4%"}
{"compound": "CCc1nc(CN2CCCN(c3ncnc4ccccc34)CC2)no1", "Percent Effect": "29.73%"}

Given the entry CCC(=O)N1CCc2[nH]cnc2C12CCN(CC1CCOC1)CC2 (stereo not given) , report its measured Percent Effect.
-0.5236%

Given the entry "CC[C@H]1CN(C(=O)C(C)(C)C)CC[C@H]1CC(=O)O" , report its measured Percent Effect.
0.9693%

Given the entry "Cn1nccc1C1CCN(Cc2cnn(-c3ccccc3)n2)CC1" , report its measured Percent Effect.
-1.945%

Given the entry O=C(O)C(F)(F)F.O=C(O)C(F)(F)F.O=C(O)c1cc2c(nc1-c1ccsc1)CCN(C1CCOC1)CC2 (stereo not given) , report its measured Percent Effect.
-18.13%

* * *

- Tested on: Wolbachia pipientis
- measurementNotes: Anti-Wolbachia Cell-Based Screen
- Format: functional
- Set-up: scale not given: in the data most compounds retested in dose-response had high values
- conditionNotes: 5 µM
Hit rate of the full screen: of about 48,000 compounds, about 13,000 (27%) showed an effect of 50% or more. This is one part of the list.
Measured Percent Effect accompanies every entry in the list below.
Form entry: value (%) — number only.

{"molecule": "Cc1cc(C)c2ncn(CCOCCO)c(=O)c2c1", "Percent Effect [%]": -8.527}
{"molecule": "CC(=O)c1cccc(NC(=O)Cn2cnc(-c3ccccc3)cc2=O)c1", "Percent Effect [%]": -1.653}
{"molecule": "CC(C(=O)Nc1cccc(F)c1)N(C)CCN1CCOCC1 (configuration not stated)", "Percent Effect [%]": 11.62}
{"molecule": "Cc1ccc(-c2c(-c3ccccc3)ncn2CCCN2CCOCC2)o1", "Percent Effect [%]": -10.17}
{"molecule": "Cn1c2ccccc2c2ncn(CCCN3CCOCC3)c(=O)c21", "Percent Effect [%]": 106.3}

Given the entry "CCc1c(C(=O)N2CCOC(C)(C)C2)cnn1-c1ccccn1" , report its measured Percent Effect.
19.62

Given the entry CCCn1ncnc1C(C)NC(=O)CC1CCN(C(C)C)CC1 (configuration not stated) , report its measured Percent Effect.
-1.645

Given the entry "Cn1c2ccccc2c2ncn(CCN3CCOCC3)c(=O)c21" , report its measured Percent Effect.
100.8

Given the entry CN(C)C(=O)c1cccc(NC(=O)CN2CCCCC2C2OCCO2)c1 (configuration not stated) , report its measured Percent Effect.
-9.797

Given the entry "O=c1c2cccc(C(F)(F)F)c2ncn1CCN1CCNCC1" , report its measured Percent Effect.
-10.29

Given the entry COCC(=O)N1CCC2(CCC2N(C)Cc2ccco2)CC1.O=C(O)C(F)(F)F (configuration not stated) , report its measured Percent Effect.
-4.207

Given the entry "CN(CCNC(=O)N1CCN(Cc2ccon2)CC1)c1ccccc1" , report its measured Percent Effect.
-8.314
